- ASSAY METHOD TEXT: Pharmacokinetic study in rats of (S)-M1 and Compound 435(S) after oral dosing (Example 37)
- Assay type: in vivo, male Sprague-Dawley rats
- COND: male, Sprague-Dawley, rat, oral gavage single 5 mg/kg dose, 1:1 mixture of (S)-M1 and 435(S), species named in label measured in plasma, −1D and −2D species included
EXPERIMENTAL ENDPOINT: AUC(0-inf) (µg·h/mL)

(I) [2H]c1nc2c(c(=O)n(CCCC([2H])([2H])[C@@]([2H])(O)C([2H])([2H])[2H])c(=O)n2C)n1C([2H])([2H])[2H] [Compound 435(S)]
(II) [2H]c1nc2c(c(=O)n(CCCC(=O)O)c(=O)n2C)n1C([2H])([2H])[2H]
Name the one with the greater AUC(0-inf) value, either I or II as given. Use the label to indicate which entry you chose. I
(I: 4.51 µg·h/mL, II: 1.92 µg·h/mL)
